Tested on: NCI-H460 lung
Assay: NCI tumour cell line growth inhibition, 48 h
Where a SMILES comes first, the peptide text is derived from it.
List of TGI values.

Before answering, review these 6 worked examples.
CCC(C)C1NC(=O)C(CCCCN)NC(=O)C(CCCCN)NC(=O)C(CC(C)C)NC(=O)C(CCCCN)NC(=O)C(C(C)CC)NC(=O)C(C(C)C)NC(=O)C(C(C)CC)NC(=O)C(CCCCN)NC(=O)C(CCCCN)NC(=O)C(C)NC(=O)C(CCCCN)NC(=O)C(CC(C)C)NC1=O (stereo not given) (cyclo(AKKIVIKLKKILK); configuration not given here) | 4.28 µM
CNC(=O)c1ccc(C(=O)NCCCCCN(O)C(=O)CCC(=O)NCCCCCN(O)C(=O)CCC(=O)NCCCCCN(O)C(C)=O)c(O)c1O | > 100 µM
COc1ccc2c(c1OC)C(=O)OC2C1c2c(c(N)c3c(c2OC)OCO3)CCN1C (stereo not given) | 11.6 µM
c1ccc(P2c3ccccc3Nc3ccccc32)cc1 | > 100 µM
COc1ccc(N)c(C(=O)CCNC(C)=O)c1 | > 100 µM
NC(N)=NCCN1CCCCCc2ccccc21 | > 10 µM

From here, focus on the item given below.
Query string: # returns recorded TGI (system: NCI-H460 lung) for c1ccc2c(c1)N[C@@H]1c3[nH]c4ccccc4c3CC[C@H]21
Result string: 33.9 µM
